Entry source: the supplement of paper PMC6089552

- Test system: A673/TR/shEF
- MEASUREMENT_NOTES: cell viability (LOESS-normalised, relative to median of negative controls) (log2 ratio); higher = more viable cells (less compound effect), active = hit call of the paper (over 3 MAD below the median)
- EXPERIMENTAL_CONDITIONS: 2.5 µM; library screen: screen2; EWS-FLI1 expression: high (no doxycycline); treatment time: 72 h
In all, about 3,200 compounds went through this assay and about 300 (9.4%) showed activity. What follows is part of a selection rich in actives, with near analogues and random picks from the rest.
READOUT_TYPE: cell viability (log2)
Hey, just send me the number, nothing else.

# COMPOUND, cell viability (log2)
rows = [
    ("C[C@@]12C(=O)OC(=O)[C@]1(C)[C@H]1CC[C@@H]2O1", 0.0871),
    ("N[C@@H](Cn1ccc(=O)[nH]c1=O)C(=O)O", 0.176),
    ("CC(=O)c1c(O)c(C)c(O)c(Cc2c(O)c3c(c(C(=O)/C=C/c4ccccc4)c2O)OC(C)(C)C=C3)c1O", 0.118),
    ("C[C@]12CC[C@@H](O)C[C@@H]1CC[C@@H]1[C@@H]2CC[C@]2(C)[C@@H](O)CC[C@@H]12", 0.141),
]

Report cell viability (log2) from A673/TR/shEF testing of `C/C=C(/C)C(=O)O[C@H]1C(C)=C2[C@H]([C@@H]1OC(=O)CCCCCCC)[C@@](C)(OC(C)=O)C[C@H](OC(=O)CCC)[C@@]1(O)[C@H]2OC(=O)[C@@]1(C)O`
-3.49

Name the value of cell viability (log2) reported for CC(N)Cc1c[nH]c2ccccc12 (stereo unspecified) when tested on A673/TR/shEF.
0.0609

State the measured cell viability (log2) (A673/TR/shEF) of `CCOC(=O)NC1=C(N2CC2)C(=O)C(NC(=O)OCC)=C(N2CC2)C1=O`
-0.0475

Given CCC1(C2=NCCN2)Cc2ccccc2O1 (stereo unspecified) , report its cell viability (log2) on A673/TR/shEF.
0.184

Given CC1(C(=O)O)C2CCC(O2)C1(C)C(=O)O (stereo unspecified) , report its cell viability (log2) on A673/TR/shEF.
0.0145

Return reported cell viability (log2) for target or system A673/TR/shEF, item COc1cc(C(O)CN)ccc1O (stereo unspecified) .
0.0316

Tell me its cell viability (log2) on A673/TR/shEF: CN1C2CCC1CC(OC(=O)C(CO)c1ccccc1)C2 (stereo unspecified)
0.123
